# Tested on: Mel-DCC-11
# Protocol text: cell viability relative to DMSO control (fraction of DMSO control); higher = less cytotoxic, active = 0.5 or less
# Reported conditions: 1 µM; 120 h
Test readout: cell viability

Compound	Test readout	Reading
COc1cc2c(N3CCN(C(=O)Nc4ccc(OC(C)C)cc4)CC3)ncnc2cc1OCCCN1CCCCC1	cell viability	1.21
COc1cc2nccc(Oc3ccc(NC(=O)NC4CC4)c(Cl)c3)c2cc1C(N)=O	cell viability	1.26
N.N.O=C([O-])C1(C(=O)[O-])CCC1.[Pt+2]	cell viability	1.13
CNNCc1ccc(C(=O)NC(C)C)cc1.Cl [Procarbazine hydrochloride]	cell viability	1.18
COc1cc([C@@H]2c3cc4c(cc3[C@@H](O[C@@H]3O[C@@H]5CO[C@@H](C)O[C@H]5[C@H](O)[C@H]3O)C3COC(=O)C32)OCO4)cc(OC)c1O (stereo not given in full) [Etoposide]	cell viability	1.4

====

# Tested on: NHEM-hTERT
# Protocol text: cell viability relative to DMSO control (fraction of DMSO control); higher = less cytotoxic, active = 0.5 or less
# Reported conditions: 1 µM; 120 h
cell viability for assorted molecules
Test readout: cell viability

Molecule	Reading
O=c1[nH]cc(F)c(=O)[nH]1 [Fluorouracil]	1.01
CC[C@]1(O)C[C@@H]2C[N@@](CCc3c([nH]c4ccccc34)[C@@](C(=O)OC)(c3cc4c(cc3OC)N(C)[C@H]3[C@@](O)(C(=O)OC)[C@H](OC(C)=O)[C@]5(CC)C=CCN6CC[C@]43[C@@H]65)C2)C1.O=S(=O)(O)O [Vinblastine sulfate]	0.567
CN(C)CCOc1ccc(/C(=C(/CCCl)c2ccccc2)c2ccccc2)cc1 [Toremifene]	0.904
CC1=C(CC(=O)O)c2cc(F)ccc2/C1=C\c1ccc(S(C)=O)cc1 (configuration not stated) [Sulindac]	0.963
C/C(=C\c1csc(C)n1)[C@@H]1C[C@@H]2O[C@]2(C)CCC[C@H](C)[C@H](O)[C@@H](C)C(=O)C(C)(C)[C@@H](O)CC(=O)N1 [Ixabepilone]	0.595
NC(=O)N1CCC(CC(=O)N2CCC([C@H]3c4ncc(Br)cc4CCc4cc(Cl)cc(Br)c43)CC2)CC1 [Lonafarnib]	0.9
S=P(N1CC1)(N1CC1)N1CC1 [Triethylenethiophosphoramide]	0.98

====

# System: Mel-DCC-11
# Protocol text: cell viability relative to DMSO control (fraction of DMSO control); higher = less cytotoxic, active = 0.5 or less
# Reported conditions: 1 µM; 120 h
Test readout: cell viability

>>> df
                                   compound    test_readout          reading
0  N#CC[C@H](C1CCCC1)n1cc(-c2ncnc3[nH]ccc23)cn1 [(R)-Ruxolitinib]  cell viability  1.03 (inactive)
1  COc1ccc2c(c1OC)C(=O)O[C@@H]2[C@H]1c2c(cc3c(c2OC)OCO3)CC[NH+]1C.[Cl-] [Noscapine hydrochloride]  cell viability  1.12 (inactive)
2  Cn1cnc2c(F)c(Nc3ccc(Br)cc3F)c(C(=O)NOCCO)cc21  cell viability   0.195 (active)
3  Nc1ccccc1NC(=O)c1ccc(CNC(=O)OCc2cccnc2)cc1  cell viability  1.48 (inactive)
4  N#Cc1ccnc(N2C(=O)CC[C@H]2C(=O)N(c2cncc(F)c2)[C@H](C(=O)NC2CC(F)(F)C2)c2ccccc2Cl)c1  cell viability  1.32 (inactive)
5  CCCCCCCCCCCCCCCCOP(=O)([O-])OCC[N+](C)(C)C  cell viability  1.01 (inactive)
6  CC1=C(/C=C/C(C)=C/C=C/C(C)=C/C(=O)O)C(C)(C)CCC1  cell viability   1.5 (inactive)
7  CN(Cc1cnc2nc(N)nc(N)c2n1)c1ccc(C(=O)N[C@@H](CCC(=O)O)C(=O)O)cc1 [Methotrexate]  cell viability  1.04 (inactive)

====

# Tested on: NHEM-hTERT
# Protocol text: cell viability relative to DMSO control (fraction of DMSO control); higher = less cytotoxic, active = 0.5 or less
# Reported conditions: 1 µM; 120 h
// NB: equality with 1 counts as F; only cell viability strictly below is T

>>> print(df.to_string())
                                   compound  discrete_label
0                 COc1c2occc2cc2ccc(=O)oc12               F
1  O.S=c1nc[nH]c2nc[nH]c12 [6-Mercaptopurine monohydrate]               T
2  CNC(=O)c1ccccc1Sc1ccc2c(/C=C/c3ccccn3)n[nH]c2c1               T
3              CC(C)Cn1cnc2c(N)nc3ccccc3c21               F
4  CN(N=O)C(=O)N[C@@H]1[C@@H](O)[C@H](O)[C@@H](CO)O[C@@H]1O               F

====

# Tested on: Mel-DCC-11
# Protocol text: cell viability relative to DMSO control (fraction of DMSO control); higher = less cytotoxic, active = 0.5 or less
# Reported conditions: 1 µM; 120 h
Classes used: active, inactive

Molecule	Discrete label
CC(=O)c1c(C)c2cnc(Nc3ccc(N4CCNCC4)cn3)nc2n(C2CCCC2)c1=O.O=S(=O)(O)CCO [Palbociclib Isethionate]	inactive
CS(=O)(=O)OCCCCOS(C)(=O)=O	inactive
COc1cc(NS(C)(=O)=O)ccc1Nc1c2ccccc2nc2ccccc12	inactive
CCN(CC)C(=S)SSC(=S)N(CC)CC	active
CC(C)C[C@@H](NC(=O)[C@H](O)[C@@H](N)Cc1ccccc1)C(=O)O.Cl [Bestatin hydrochloride]	inactive
Nc1nc(Cl)nc2c1ncn2[C@H]1C[C@H](O)[C@@H](CO)O1	active
CC(C)C[C@H](NC(=O)CNC(=O)c1cc(Cl)ccc1Cl)B(O)O	active
C1=C/COCc2cc(ccc2OCCN2CCCC2)Nc2nccc(n2)-c2cccc(c2)COC/1	inactive
O=C(c1ccc(F)c(F)c1Nc1ccc(I)cc1F)N1CC(O)([C@@H]2CCCCN2)C1	active
O=C(/C=C/c1ccc(O)cc1)c1ccc(O)cc1O	inactive
COC(=O)c1ccc2c(c1)NC(=O)/C2=C(\Nc1ccc(N(C)C(=O)CN2CCN(C)CC2)cc1)c1ccccc1	inactive
O=C(/C=C\n1cnc(-c2cc(C(F)(F)F)cc(C(F)(F)F)c2)n1)NNc1cnccn1 [Selinexor]	active
CN(C)CCOc1ccc(/C(=C(/CCCl)c2ccccc2)c2ccccc2)cc1.O=C(O)CC(O)(CC(=O)O)C(=O)O [Toremifene citrate]	inactive
COc1cc2c(Nc3ccc(Br)cc3F)ncnc2cc1OCC1CCN(C)CC1	inactive
CC1=C(/C=C/C(C)=C/C=C/C(C)=C\C(=O)O)C(C)(C)CCC1	inactive
CCNC(=O)[C@@H]1CCCN1C(=O)[C@H](CCCN=C(N)N)NC(=O)[C@H](CC(C)C)NC(=O)[C@@H](CC(C)C)NC(=O)[C@H](Cc1ccc(O)cc1)NC(=O)[C@H](CO)NC(=O)[C@H](Cc1c[nH]c2ccccc12)NC(=O)[C@H](Cc1cnc[nH]1)NC(=O)[C@@H]1CCC(=O)N1 [Leuprorelin Acetate]	inactive
O=c1c(-c2ccc(O)cc2)coc2cc(O)cc(O)c12	inactive
CCCC(=O)O[C@]1(C(=O)CO)CC[C@H]2[C@@H]3CCC4=CC(=O)CC[C@]4(C)[C@H]3[C@@H](O)C[C@@]21C [Hydrocortisone butyrate]	inactive
O=c1cc(O)c(Cl)c[nH]1	inactive
Cc1[nH]c2ccccc2c1CCNCc1ccc(/C=C/C(=O)NO)cc1	active
O=c1[nH]cc(F)c(=O)[nH]1	inactive
Nc1ccn([C@@H]2O[C@H](CO)[C@@H](O)C2(F)F)c(=O)n1	active
Nc1nc(F)nc2c1ncn2[C@@H]1O[C@H](CO)[C@@H](O)[C@@H]1O	inactive
CCc1cc2c(cc1N1CCC(N3CCOCC3)CC1)C(C)(C)c1[nH]c3cc(C#N)ccc3c1C2=O	inactive
CNC(=O)c1ccccc1Sc1ccc2c(/C=C/c3ccccn3)n[nH]c2c1	inactive
O=C1CCC(N2C(=O)c3ccccc3C2=O)C(=O)N1 (stereo unspecified) [Thalidomide]	inactive
COc1cccc2c1C(=O)c1c(O)c3c(c(O)c1C2=O)C[C@@](O)(C(=O)CO)C[C@@H]3O[C@H]1C[C@H](N)[C@H](O[C@H]2CCCCO2)[C@H](C)O1	active
[Cl][Pt+2][Cl] [Cisplatin]	inactive
C[C@]12CC[C@@H]3c4ccc(O)cc4C[C@@H](CCCCCCCCCS(=O)CCCC(F)(F)C(F)(F)F)[C@H]3[C@@H]1CC[C@@H]2O (stereo partly specified)	inactive
Nc1cccc2c1C(=O)N(C1CCC(=O)NC1=O)C2=O (stereo unspecified) [Pomalidomide]	inactive
Cl.N=c1ccn2c(n1)O[C@H]1[C@H](O)[C@@H](CO)O[C@H]12 [Cyclocytidine hydrochloride]	inactive
